Listed next: entries and their corresponding combination Emax.
test system: NCI-H2009 (Lung Adenocarcinoma); assay: combination Emax (second highest fraction inhibited in the dose matrix, 72 h); higher = more inhibition; extreme values may be limits of the assay
readout type: combination Emax

>>> value_measured("COc1cccc(OCCCN)c1-c1cc(Nc2cnc(C#N)cn2)n[nH]1 [Prexasertib] + C[C@@H]1COCCN1C2=NC(=NC(=C2)C3(CC3)[S@](=N)(=O)C)C4=C5C=CNC5=NC=C4 [AZD6738] (first compound max 1 µM, 7x7, partner max 10 µM)")
0.522
>>> value_measured("NC1(C(=O)N[C@@H](CCO)c2ccc(Cl)cc2)CCN(c2ncnc3[nH]ccc23)CC1 [Capivasertib] + CC(=O)c1c(C)c2cnc(Nc3ccc(N4CCNCC4)cn3)nc2n(C2CCCC2)c1=O [Palbociclib] (first compound max 10 µM, 7x7, partner max 10 µM)")
0.242
